Known kon of a selection of binders
Target: T1, tail-chimeric peptide IhfA3-IhfB2NTHI (nontypeable Haemophilus influenzae …)
T1 construct: also called IHF(NTHI) tail chimeric peptide; IHFNTHI tail chimeric peptide
T1 peptide: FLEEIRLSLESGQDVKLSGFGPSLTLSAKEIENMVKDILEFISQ
Experiment: SPR Biacore 3000, HuMab immobilized, peptide as analyte
quantity: kon (M⁻¹ s⁻¹)

binder | quantity | reading
humanized anti-tail monoclonal antibody, heavy chain SEQ ID NO: 6 and light chain SEQ ID NO: 11 (antibody, V domains shown, also called H10215 (11E7.C7 Humanized HC3) + L10214 (11E7.C7 Humanized LC2)) VH: EVQLVESGGGLVQPGRSLRLSCTASGFTFSRYGMSWVRQAPGKGLEWVATISSGGSYTYYTDSVKGRFTISRDNAKNILYLQMNSLKTEDTAVYYCERHGGDGYWYFDVWGQGTMVTVSS VL: DIQMTQSPSSLSASVGDRVTITCRASQDISNYLNWYQQKPGKAVKLLIYYTSRLHSGVPSRFSGSGSGTDYTLTISSLQPEDFATYYCQQGNPLRTFGGGTKVEIKR | kon | 33000
humanized anti-tail monoclonal antibody, heavy chain SEQ ID NO: 4 and light chain SEQ ID NO: 10 (antibody, V domains shown, also called HuTailMab; TP-21958) VH: EVQLVESGGGLVKPGGSLRLSCAASGFTFSRYGMSWVRQAPGKGLEWVATISSGGSYTYYTDSVKGRFTISRDNAKNSLYLQMNSLRAEDTAVYYCERHGGDGYWYFDVWGQGTMVTVSS VL: DIQMTQSPSSLSASVGDRVTITCRASQDISNYLNWYQQKPGKAVKLLIYYTSRLHSGVPSRFSGSGSGTDYTLTISSLQPEDFATYFCQQGNPLRTFGGGTKVEIKR | kon | 11000
humanized anti-tail monoclonal antibody, heavy chain SEQ ID NO: 6 and light chain SEQ ID NO: 12 (antibody, V domains shown, also called H10215 (11E7.C7 Humanized HC3) + L10215 (11E7.C7 Humanized LC3)) VH: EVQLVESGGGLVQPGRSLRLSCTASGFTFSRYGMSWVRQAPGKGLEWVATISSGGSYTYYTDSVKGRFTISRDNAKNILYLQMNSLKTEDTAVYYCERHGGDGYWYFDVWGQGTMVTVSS VL: DIVMTQSPATLSLSPGERATLSCRASQDISNYLNWYQQKPGQAVRLLIYYTSRLHSGIPARFSGSGSGTDYTLTISSLEPEDFAVYFCQQGNPLRTFGGGTKVEIKR | kon | 160000
humanized anti-tail monoclonal antibody, heavy chain SEQ ID NO: 6 and light chain SEQ ID NO: 10 (antibody, V domains shown, also called H10215 (11E7.C7 Humanized HC3) + L10213 (11E7.C7 Humanized LC1)) VH: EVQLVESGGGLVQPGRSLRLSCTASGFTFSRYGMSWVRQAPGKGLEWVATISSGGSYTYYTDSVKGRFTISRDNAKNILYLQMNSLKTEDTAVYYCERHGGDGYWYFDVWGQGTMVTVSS VL: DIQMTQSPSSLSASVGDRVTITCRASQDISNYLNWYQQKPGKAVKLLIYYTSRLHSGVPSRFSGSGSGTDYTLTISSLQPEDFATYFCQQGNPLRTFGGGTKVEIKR | kon | 18000
humanized anti-tail monoclonal antibody, heavy chain SEQ ID NO: 5 and light chain SEQ ID NO: 12 (antibody, V domains shown, also called H10214 (11E7.C7 Humanized HC2) + L10215 (11E7.C7 Humanized LC3)) VH: EVQLVESGGGLVKPGGSLRLSCAASGFTFSRYGMSWVRQAPGKGLEWVSTISSGGSYTYYTDSVKGRFTISRDNAKNSLYLQMNSLRAEDTAVYYCERHGGDGYWYFDVWGQGTMVTVSS VL: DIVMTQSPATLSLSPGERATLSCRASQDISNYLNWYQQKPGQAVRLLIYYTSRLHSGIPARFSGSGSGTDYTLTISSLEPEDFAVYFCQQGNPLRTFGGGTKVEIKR | kon | 20000
